These data points were gathered from paper PMC10504751.

Tested on: NCI/ADR-RES
Experiment: NCI one-dose SRB anti-proliferative screen
Format: cell-based
Settings: Homo sapiens; NCI/ADR-RES, Ovarian Cancer; NCI one dose; read-out: Cell growth inhibition %
value type: inhibition at 10 µM (%)
Numbers only here, please. The scale is %.

// below: answered molecules
chemical string: COc1ccc(/C=C/C(=O)c2ccc(NC(=O)CSc3nnc(-c4ccc5[nH]c(-c6ccccc6)nc5c4)o3)cc2)cc1OC
value unit: %
inhibition at 10 µM: 0
--
chemical string: COc1ccc(-c2nc3cc(-c4nnc(SCC(=O)Nc5ccc(C(=O)/C=C/c6cc(OC)c(OC)c(OC)c6)cc5)o4)ccc3[nH]2)cc1
value unit: %
inhibition at 10 µM: 0

Continue with the next molecule.
Prompt: Endpoint output: inhibition at 10 µM of `COc1ccc(-c2nc3cc(-c4nnc(SCC(=O)Nc5ccc(C(=O)/C=C/c6ccc(Cl)cc6)cc5)o4)ccc3[nH]2)cc1` . Value?
Completion: 0

###

Collected inhibition at 10 µM values appear next to each entry.
System: CCRF-CEM
Assay: NCI one-dose SRB anti-proliferative screen
Format: cell-based
Settings: Homo sapiens; CCRF-CEM (Leukemia), NCI one dose 10 µM; read-out: Cell growth inhibition %
Numbers only here, please. The scale is %.

chemical string: COc1ccc(/C=C/C(=O)c2ccc(NC(=O)CSc3nnc(-c4ccc5[nH]c(-c6ccc(Cl)cc6)nc5c4)o3)cc2)cc1
numeric result: 40.1

Prompt: Observed inhibition at 10 µM on CCRF-CEM for `COc1cc(-c2nc3cc(-c4nnc(SCC(=O)Nc5ccc(C(=O)/C=C/c6ccccc6)cc5)o4)ccc3[nH]2)cc(OC)c1OC` , please.
Completion: 21.9

Prompt: Try `O=C(CSc1nnc(-c2ccc3[nH]c(-c4ccc(Cl)cc4)nc3c2)o1)Nc1ccc(C(=O)/C=C/c2ccccc2)cc1` next.
Completion: 0
